- Test system: MS2 coat protein
- TEST_PROTOCOL: apparent Kd, MS2 coat protein; higher = weaker binding; RNA-MaP array; FMN 200 µM where present
- COND: designed as: ON switch for flavin mononucleotide; no ligand
Hi, to clarify the labels: Satisfied covers apparent Kd from 70 nM upward, Not satisfied covers anything below 70 nM.

| POLYMER_SEQUENCE | CLASSIFICATION |
| --- | --- |
| GACAUACAUGAGGAUCACCCAUGUUCAAACGGGCAAGGAUAUGUGUGGAAACCAUACUAUACAGAAGGUGUCUGUC | Not satisfied |
| AACGGGUGGGUAGGAUAUGGCUAUGUCUCAUUGCUAGAAGGACCAGCUACUACAUGAGGAUCACCCAUGUCGUAGUGCACCCAG | Not satisfied |
| GCAAAGCCUGACAUGAGGAUCACCCAUGUUAGAUUGUUAUGUCAGGAUAUUGUCUAGCCACUAGACAAGAAGGGAUGCUUUGCU | Satisfied |
| UCGAAAAUGCAAGGAUAUCAAUUAUAGCUAAAUUAGACAUGAGGAUCACCCAUGUAAAUAUGGAGUGAGAAGGUGCAAUAAUUU | Satisfied |
| UCAUUUAAUACAGGAUAUGUUAGUAUACAGUAGAUUGGUUAUAACAUAAUAACAGAAGGGUAGAACAUGAGGAUCACCCAUGUA | Satisfied |
| AGGUCAACCACAGGAUAUGGCUAGCAUAGCUAGCCAGAAGGGUGGUCGUUGCCAUGUAAAUACAUGAGGAUCACCCAUGUAUCC | Satisfied |
| GGGUACAUGGGAGGAUAUCCUCAUGAGACAUGAGGAUCACCCAUGUAUUAUAAGCCGAAAGGCAAGGAGAAGGCCCAUGUACCG | Not satisfied |
| UUGGAGUUCGUAGGAUAUGUAGGAUAUUCCUACAUGAGGAUCACCCAUGUAUGCAUGGAAGAAGGACAGAAGGACGAGCUCCAU | Satisfied |
| GUAGCAUACCGAGGAUAUUCAUAUAGGAAACAAACAUGAGGAUCACCCAUGUGGCGAAAGCCUUGGGAGAAGGCGGAAUGCUAC | Satisfied |
| UGAAUGUAGGAGAAGGAGGACUUCAUGAGGAUCACCCAUGUGUUAGGACUUAGGAUAUUUGACGACAUGAGGAUCACCCAUGUG | Not satisfied |
| GAGAGAGGGUGAGGAUAUUUAGUGAUAAUGAUAAGAGAAGGCACAGACAUGAGGAUCACCCAUGUGGGAAUAAUCCAGAGAGAG | Satisfied |
| GAGAUUUUGUAAGGAUAUACUCUGUGAUGAAGAGUAGAAGGUACUUACAUGAGGAUCACCCAUGUUUAACGAGAUACUAAUCGU | Not satisfied |
| CGGACAAUGCCCGAGACAUGAGGAUCACCCAUGUUAGCAGCACAGGAUAUCAUGUUUUGUAAAGGUGAGAAGGGUGAUUGCAUC | Satisfied |
| UGAGCGACCACAGGAUAUACUUGAGAAGACCGAGUAGAAGGGUGGAAGAGCGUGCAGUGACAUGAGGAUCACCCAUGUGGUUGU | Satisfied |
| GACAUACAUGAGGAUCACCCAUGUACAGACGUACAAGGAUAUGUGUGGAAACCGUACUAUACAGAAGGUGUUUGUC | Satisfied |
| UUUACAUGAGGAUCACCCAUGUAUAGAACGGUUAAUCAAAGUGAGGAUAUACAUAAUUUUGUAUUGUAGAAGGCACUGGGUACA | Not satisfied |

* * *

- System: MS2 coat protein
- TEST_PROTOCOL: apparent Kd, MS2 coat protein; higher = weaker binding; RNA-MaP array; FMN 200 µM where present
- COND: ligand present: flavin mononucleotide; designed as: ON switch for flavin mononucleotide
PROPERTY_NAME: apparent Kd (nM)

| POLYMER_SEQUENCE | RECORDED_RESULT |
| --- | --- |
| AAAAAACAUGAGGAUCACCCAUGUCCUCGGACAUGAGGAUAUGUACAGACUUCGGUCUGUACAGAAGGCAUGUCAA | 585 |
| AUUACAUGAGGAUCACCCAUGUACAGCACGUUUCAAAACAGUGAGGAUAUACGAAAUGUAGGAACGUAGAAGGCACUGGGUGCA | 34.2 |
| AUUAAACAUGAGGAUCACCCAUGUCAACAAAGUCGAGGAUAUGGGCAAUUAAAAUAAGAACCAGAAGGCGAAUAAU | 35.4 |
| UUUACAUGAGGAUCACCCAUGUAUAGAACGGUUAAUCAAAGUGAGGAUAUACAUAAUUUUGUAUUGUAGAAGGCACUGGGUACA | 19.3 |
| AAAAAAAAAAGUGAGGAUAUGGGAAAAUUAACAUGAGGAUCACCCAUGUGAUAAAAAAAAAAAAACCAGAAGGUACAAAAAAAAAA | 26.4 |

* * *

- System: MS2 coat protein
- TEST_PROTOCOL: apparent Kd, MS2 coat protein; higher = weaker binding; RNA-MaP array
- COND: ligand present: flavin mononucleotide; designed as: OFF switch for flavin mononucleotide
// values below are reported apparent Kd
PROPERTY_NAME: apparent Kd (µM)

| POLYMER_SEQUENCE | ASSAYED_TARGET | RECORDED_RESULT |
| --- | --- | --- |
| UCGUGCAGAUAGGAUAUAUAGUCACUGUCGUCUAUAGAAGGAUCUACAUGAGGAUCACCCAUGUAAUGUGAGUC | MS2 coat protein | 0.0306 |
| UGCAGGCGAACAGGAUAUCACACAUGAGGAUCACCCAUGUAAACUACUUAAGAAAGGGAGCCUCGUGAGAAGGGUUUCUUUGGG | MS2 coat protein | 0.0601 |
| GGACAUGAGGAUCACCCAUGUGGGAUCCACUACGGUCACGCUAGAAGGGAUGUGGGUGGCCGAUAUCAGGAUAUAGCAGUUUAG | MS2 coat protein | 0.189 |
| GCUUGCUCAGAGGAUAUAGUUUCAACCACUCUACUAGAAGGCUGUACAUGAGGAUCACCCAUGUCCUUAAUCUC | MS2 coat protein | 0.0237 |
| AAAGGCGUAGGAUAUACAUGAGGAUCACCCAUGUAUCACAAUAACGAGGAAUGAAAGUGUAGAAGGACGAUAAC | MS2 coat protein | 0.0068 |
| CCGCUUGCAGGAUAUACAUGAGGAUCACCCAUGUUAAGAGAACAGUAACAAAGCAUUUGUAGAAGGGCAAUACG | MS2 coat protein | 0.00919 |
| CUCAGGCUGCGAGGAUAUCCGUCGAAUCAAACAGGAGAAGGCGCAUACAUGAGGAUCACCCAUGUGCUGACUUGUCCGUGAAUC | MS2 coat protein | 0.00637 |
| GCGACAUGAGGAUCACCCAUGUGCCUCGUGUUAUUCUCUUUAAGAAGGAACGGGUAGCUCUAUUGUUAGGAUAUUAAUGGAAUU | MS2 coat protein | 0.724 |
| CUCUCGCAAGGAUAUACACAGUGGAAUAUCAUAAGGUGAACACAUGAGGAUCACCCAUGUAGAAGGUGCAUAAG | MS2 coat protein | 0.0385 |
| AAGCUCUCAGGAUAUACAUGAGGAUCACCCAUGUGGUCGUAUUUAAAGUGGAGCAGCAGUAGAAGGGAGGCGAC | MS2 coat protein | 0.0204 |
| CAGUGAAGAGGAUAUACAUGAGGAUCACCCAUGUACCGUGGUCCAUAUCAUAAUUCGAGUAGAAGGCUUAACCA | MS2 coat protein | 0.108 |
| GACAGGACGACAUGAGGAUCACCCAUGUGUUAGCGUGGAUAGCAGGAUAUAUUAUUUAGACUCGGAUAGAAGGGCUCGGACCUA | MS2 coat protein | 0.0145 |
| AUACCAUCCCAAGGAUAUGUUACCUAGACAUGAGGAUCACCCAUGUGAGAUUAGAGCUGUCGCGUACAGAAGGUGGUGAUGACA | MS2 coat protein | 0.0281 |
| UGUGGAACGGAAGGAUAUGGUCACCGAUGGUCUCCAGAAGGUCCGGGUGACCGAACAAUACAUGAGGAUCACCCAUGUAGCAAA | MS2 coat protein | 0.00684 |
| UAGCGGACUGUGAGGAUAUAGCAAAUUCAACAAUUCUAGAAGGCACAUGAGGAUCACCCAUGUAGAGUGAUUAA | MS2 coat protein | 0.0707 |
| UAUUUGUUGAAGAAGGAGCGUACAUGAGGAUCACCCAUGUCCAACGUCUACGCGGGUUAUGUUAGCUAGGAUAUUCCGAAAUGG | MS2 coat protein | 0.0221 |
| GCGACUCUCGUGAAGCGACAUGAGGAUCACCCAUGUAACACUAGAAGGAGGCACGAUACGAUGUCCUAGGAUAUAGACACGGCU | MS2 coat protein | 0.0265 |
| GAGAGAUAAGGAUAUCCACAACGGGACAUGAGGAUCACCCAUGUACCCUCAUUCCUCGCAGGAGAAGGUAUCAUGU | MS2 coat protein | 0.0443 |
| CGUUAGCAGUAGAAGGUAGCCGGCAGGUCAGGGCGACCACAUGAGGAUCACCCAUGUCUAUGUUCUAAGGAUAUACUGACCCAA | MS2 coat protein | 0.00559 |
| CGGGUGUAGACAGGAUAUGCAAAUAAAGGUGAAGCAGAAGGGUCACAUGAGGAUCACCCAUGUCACUAAAUUGGCGGUAUAAGA | MS2 coat protein | 0.159 |
| GGACACGAAGGAUAUACCCAAUGCCUGAGAAAACUCAUGGGACAUGAGGAUCACCCAUGUAGAAGGUCGUUAAA | MS2 coat protein | 0.416 |
| GUCGUCACAGGAUAUACAUGAGGAUCACCCAUGUUCCCGUGUAAAUGGGUUGUGUUAGGUAGAAGGGUGCACGC | MS2 coat protein | 0.0278 |
| UAGGUGCUCUAAGGAUAUUAUACAUGAGGAUCACCCAUGUGGCGACCAAGGGUAGAAGAGGAACUUAAGAAGGUAGAUGUAUAG | MS2 coat protein | 0.034 |
| CGAGUGUGAGGAUAUCAGUUCAAUAGGGCUACGCCGUGUCGUGAGAAGGCACAUGAGGAUCACCCAUGUAAUAA | MS2 coat protein | 0.122 |
| AUGAUGUAAGGAUAUUGCGCGAUGUUUACCAUUGGUCUGCACAAGAAGGUACAUGAGGAUCACCCAUGUGGGCC | MS2 coat protein | 0.0399 |
| GGAUUUGAUCCAGGAUAUUAACAAUCCUCAGAUCAAAAUACAUGAGGAUCACCCAUGUACUCAAAUAAGAAGGGGAUGGCGGCC | MS2 coat protein | 0.0205 |

Where do the numbers come from? From the EternaBench riboswitch data.
